tested_target: T1, RTEL1∆762 (human, UniProt Q9NZ71-6 762-1300)
T1 sequence: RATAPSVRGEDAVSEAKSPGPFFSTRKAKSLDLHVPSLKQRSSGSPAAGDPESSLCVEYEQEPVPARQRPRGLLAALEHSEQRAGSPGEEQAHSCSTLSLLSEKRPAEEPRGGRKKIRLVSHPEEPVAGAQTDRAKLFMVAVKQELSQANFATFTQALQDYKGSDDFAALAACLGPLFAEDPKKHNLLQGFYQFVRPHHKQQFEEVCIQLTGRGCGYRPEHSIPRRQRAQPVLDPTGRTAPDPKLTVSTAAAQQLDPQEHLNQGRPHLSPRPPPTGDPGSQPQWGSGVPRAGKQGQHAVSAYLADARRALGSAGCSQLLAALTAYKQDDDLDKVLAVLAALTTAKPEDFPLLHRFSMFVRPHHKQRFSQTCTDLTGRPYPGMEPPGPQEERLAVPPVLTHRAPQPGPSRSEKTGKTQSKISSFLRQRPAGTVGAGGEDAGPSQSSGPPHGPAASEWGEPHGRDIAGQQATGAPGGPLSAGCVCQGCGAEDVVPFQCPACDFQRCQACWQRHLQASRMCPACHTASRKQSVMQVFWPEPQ
method: fluorescence anisotropy; RNA folded in 100 mM KCl; text: <10 nM, at detection limit; 20 mM Tris pH 7.5, 50 mM KCl, 0.5 mM TCEP, 0.5 mM MgCl2, 10% glycerol, 0.1% IGEPAL, room temperature 30 min; oligos refolded in 10 mM Tris pH 7.5, 100 mM KCl; EMSA legends give 150 or 300 mM KCl
recorded_conditions: protein: recombinant; tags: 6xHis; chain copies: 2; label: 5' fluorescein; G4
observed_property: pKd
Reminder that pKd means the negative base-10 logarithm of the concentration expressed in mol/L.

Please report the recorded pKd for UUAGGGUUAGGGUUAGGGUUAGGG (structured_RNA) [TERRA (FAM), folded in KCl] .
8.89
